The reported measurements were obtained from patent US10736883B2.

biological target: UniProtKB P35414; assay: [35S]GTPγS binding assay on membranes from CHO cells stably expressing human APJ receptor; conditions: membranes of CHO cells stably expressing human APJ receptor, means of several independent experiments, read-out: Activity hAPJ SPA EC50 IP
Sequence (P35414 whole entry): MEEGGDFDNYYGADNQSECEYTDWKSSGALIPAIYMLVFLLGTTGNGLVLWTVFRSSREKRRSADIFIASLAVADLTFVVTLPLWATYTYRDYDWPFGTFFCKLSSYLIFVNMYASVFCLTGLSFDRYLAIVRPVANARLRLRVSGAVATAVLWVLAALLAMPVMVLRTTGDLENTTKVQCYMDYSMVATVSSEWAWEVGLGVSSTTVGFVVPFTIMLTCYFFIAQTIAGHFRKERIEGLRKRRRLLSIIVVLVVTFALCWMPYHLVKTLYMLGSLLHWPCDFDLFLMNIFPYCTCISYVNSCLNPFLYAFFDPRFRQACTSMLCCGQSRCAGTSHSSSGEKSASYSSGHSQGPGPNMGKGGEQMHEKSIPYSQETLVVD
Reported EC50 by item:
Record the value in nM, omitting the unit from your answer.

Solved cases below.
MOLECULE | RECORDED MEASUREMENT
COc1cccc(OC)c1-n1c(NS(=O)(=O)[C@H]2C[C@@H](O)CN(c3nc(C)cc(C)n3)C2)nnc1-c1ccc(C)o1 (single isomer, unassigned) [Example 336.0] | 0.55
COc1cccc(OC)c1-n1c(NS(=O)(=O)[C@H](C)Cc2cnc(C)cn2)nnc1-c1ccc(C)o1 (single isomer, unassigned) | 0.36
CCO[C@H](c1ncc(C)cn1)[C@@H](C)S(=O)(=O)Nc1nnc(-c2ccc(C)o2)n1-c1c(OC)cccc1OC (single isomer, unassigned) | 3.5
COc1cccc(OC)c1-n1c(NS(=O)(=O)[C@H](C)[C@@H](O)c2ncn3ccccc23)nnc1-c1ccc(C)o1 (single isomer, unassigned) [Example 288.0] | 4.2

What EC50 value was documented for this molecule, COc1cccc(OC)c1-n1c(NS(=O)(=O)[C@H]2COC[C@@H]2c2ncc(F)cn2)nnc1-c1ccco1 (racemic) ?
3.6

What EC50 value was documented for this molecule, COCC[C@@H](Cc1ncc(C)cn1)S(=O)(=O)Nc1nnc(-c2ccc(C)o2)n1-c1c(OC)cccc1OC (racemic) [Example 76.0] ?
0.6

What EC50 value was documented for this molecule, COc1cccc(OC)c1-n1c(NS(=O)(=O)[C@@H](C)[C@@H](O)c2coc(C)n2)nnc1-c1ccc(C)o1 (racemic) [Example 300.0] ?
12

What EC50 value was documented for this molecule, COc1cccc(OC)c1-n1c(NS(=O)(=O)[C@@H](C)[C@H](O)c2cccc3ccnn23)nnc1-c1ccc(C)o1 (single isomer, unassigned) [Example 296.0] ?
6.8

What EC50 value was documented for this molecule, `COCC(COC)n1c(NS(=O)(=O)[C@@H](C)[C@@H](OC(C)C)c2ncc(Cl)cn2)nnc1-c1ccc(C)o1` ?
0.55
